What %Inh was measured for each of the following?
System: YES
Construct: gene YES1
Details: concentration: 1 μM, replicates: in singlicate; n = 1;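 also: KINOMEscan kinase panel screen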
Record the value in %, omitting the unit from your answer.

Test system YES; read-out %Inh; what value for CCn1c(-c2c(N)noc2C)nc2cnccc21 [SB-737856] ?
19

Try this molecule next: CNc1cc(-c2ccc3c(N)n[nH]c3c2)nc(N)n1 [GSK2224810]
0

Try this molecule next: Cc1c(Cn2c(C)c(C)n3c(=O)cc(N4CCOCC4)nc23)cccc1C(F)(F)F [GSK2328680]
7

Try this molecule next: `CN1c2ccc(-c3ccc(C(N)=O)cc3)cc2-c2[nH]ncc2S1(=O)=O`
0

Try this molecule next: Fc1ccc(-c2nn3cccc(F)c3c2-c2ccncc2)cc1 [GW475620]
5

Try this molecule next: Cc1cccc2c(-c3ccncn3)c(-c3ccc(F)cc3)nn12 [GW515532]
0

Try this molecule next: `COc1ccc(CSc2nnc(-c3ccc4nccn4c3)o2)cc1C(F)(F)F`
0

Try this molecule next: O=c1cc(N2CCOCC2)nc2n(Cc3ccccc3F)ccn12 [GSK2297428]
0

Try this molecule next: CC(C)c1ccc(O)cc1Nc1ccnc2ccc(C(F)(F)F)cc12 [GW482059]
0

====

What %Inh was measured for each of the following?
Tested on: PAK6
Details: concentration: 1 μM, replicates: in singlicate; n = 1
Record the value in %, omitting the unit from your answer.

Requested field: %Inh. Item: `CN1c2ccc(-c3ccc(C(N)=O)cc3)cc2-c2[nH]ncc2S1(=O)=O`
0

Try this compound next: COC(=O)c1cccc(NC(=O)NC2CCN(c3ccnc(Nc4ccc(F)cc4)n3)C2)c1 (stereo not shown)
0

Try this compound next: `CCCCc1nn2ncccc2c1-c1ccnc(NC2CC2)n1`
0

Try this compound next: `Cc1cnc(N)c(/C=C/c2cncc(C(=O)NCCc3ccc(Cl)cc3Cl)c2)c1.Cl`
0

Try this compound next: `Fc1ccc(-c2nc3n(c2-c2ccncc2)CCS3)cc1`
0

Try this compound next: `COc1ccc(CSc2nnc(-c3ccc4nccn4c3)o2)cc1C(F)(F)F`
35

Try this compound next: `Cn1cnc2c(N)ncnc21`
0

====

System: TNNI3K
Conditions: concentration: 1 μM, replicates: in singlicate; n = 1
What %Inh was measured for each of the following?
Numeric answer plus unit only.

Test system TNNI3K; read-out %Inh; what value for `Cc1c(Cn2c3ccccc3n3c(=O)cc(N4CCOCC4)nc23)cccc1C(F)(F)F` ?
0%

Try this molecule next: `CC[C@@H]1CO[C@H](C(=O)Nc2ccccc2)CN1c1cc(-c2ccc3c(N)n[nH]c3c2)nc(NC)n1`
17%

Try this molecule next: `Cc1ccc(NC(=O)Nc2ccc(Cl)c(C(F)(F)F)c2)cc1-c1ccc(C(=O)Nc2ccncc2)cc1`
64%

Try this molecule next: `O=C(Nc1n[nH]c2nc(-c3cccs3)c(Br)cc12)C1CC1`
98.6%

Try this molecule next: `Cl.Cl.Cl.N#Cc1ccc(CCNc2nccc(-c3cccc(CN4CCNCC4)c3)n2)cc1`
18%

Try this molecule next: `Cc1ccccc1-c1cc(-c2c[nH]nc2-c2ccccn2)ccn1`
0%

Try this molecule next: `Cc1ccc(NC(=O)Nc2ccccc2F)cc1-c1ccc(C(=O)Nc2ccncc2)cc1`
53%

Try this molecule next: `CCCCc1nn2ncccc2c1-c1ccnc(NC2CC2)n1`
0%

Try this molecule next: `COc1ccc2cc(-c3nc(-c4ccccc4C(C)C)[nH]c3-c3ccncc3)ccc2c1`
15%

Try this molecule next: `COc1ccc(CSc2nnc(-c3ccc4ncsc4c3)o2)cc1C(F)(F)F`
0%

Try this molecule next: `CCc1ccc(-c2ccc3c(c2)-c2n[nH]cc2S(=O)(=O)N3C)cc1`
0%

Try this molecule next: `Nc1ncnc2occ(-c3ccc4c(c3)CCN4C(=O)Cc3cc(F)ccc3F)c12`
0%

Try this molecule next: COC(=O)c1cccc(NC(=O)NC2CCN(c3ccnc(Nc4ccc(OC)cc4)n3)C2)c1 (stereo not shown)
0%

====

What %Inh was measured for each of the following?
Tested on: CSF1R-autoinhibited
Conditions: concentration: 1 μM, replicates: in singlicate; n = 1
Record the value in %, omitting the unit from your answer.

Requested field: %Inh. Item: `CN1c2ccc(-c3ccc(C(N)=O)cc3)cc2-c2[nH]ncc2S1(=O)=O`
17

Try this compound next: COC(=O)c1cccc(NC(=O)NC2CCN(c3ccnc(Nc4ccc(F)cc4)n3)C2)c1 (stereo not drawn)
0

Try this compound next: `COc1ccc2cc(-c3nc(-c4ccccc4C(C)C)[nH]c3-c3ccncc3)ccc2c1`
0

====

Test system: HPK1
Conditions: concentration: 1 μM, replicates: in singlicate; n = 1
VALUE KIND: %Inh (%)
Record the value in %, omitting the unit from your answer.

Requested field: %Inh. Item: `Cc1c(Cn2c(C)c(C)n3c(=O)cc(N4CCOCC4)nc23)cccc1C(F)(F)F`
33

Try this compound next: `COc1cccc(C2=C(Nc3cc(Cl)c(O)c(Cl)c3)C(=O)NC2=O)c1`
43

Try this compound next: `Cc1cnc(N)c(/C=C/c2cncc(C(=O)NCCc3ccc(Cl)cc3Cl)c2)c1.Cl`
45

Try this compound next: `O=C(Nc1n[nH]c2nc(-c3cccs3)c(Br)cc12)C1CCCC1`
14

Try this compound next: `O=c1cc(N2CCOCC2)nc2n(Cc3cccc(Cl)c3Cl)c3ccccc3n12`
19

Try this compound next: `Cl.Cl.Cl.N#Cc1ccc(CCNc2nccc(-c3cccc(CN4CCNCC4)c3)n2)cc1`
48

Try this compound next: `CC(=O)c1c(C)c2cnc(Nc3ccc(N4CCNCC4)cn3)nc2n(C2CCCC2)c1=O`
0

Try this compound next: `COc1ccc(Nc2nccc(-c3ccc(NC(=O)c4cc5cc(F)ccc5[nH]4)cc3)n2)cc1`
38

Try this compound next: `CN1c2ccc(-c3ccc(C(N)=O)cc3)cc2-c2[nH]ncc2S1(=O)=O`
28

Try this compound next: CC(=O)c1cccc(NC(=O)NC2CCN(c3ccnc(Nc4ccc(F)cc4)n3)C2)c1 (stereo not shown)
50

Try this compound next: `Nc1cccc(-c2ccc3c(N)n[nH]c3c2)n1`
35

Try this compound next: `O=C1NC(=O)C(c2ccc(Cl)cc2)=C1Nc1cccc(Cl)c1`
12

Try this compound next: `CCn1c(-c2c(N)noc2C)nc2cnccc21`
41

====

Tested on: WEE1
Settings: concentration: 1 μM, replicates: in singlicate; n = 1
VALUE KIND: %Inh (%)
Record the value in %, omitting the unit from your answer.

Requested field: %Inh. Item: `COc1cccc(NC(=O)Nc2ccc(C)c(-c3ccc(C(=O)Nc4ccncc4)cc3)c2)c1`
11

Try this compound next: `COc1ccc(-c2coc3ccc(-c4nnc(C)o4)cc23)cc1`
0

Try this compound next: `CC(=O)c1c(C)c2cnc(Nc3ccc(N4CCNCC4)cn3)nc2n(C2CCCC2)c1=O`
0

Try this compound next: `Nc1nccc(-c2c(-c3ccc(F)cc3)ncn2C2CCN(Cc3ccccc3)CC2)n1`
0

Try this compound next: `CCc1ccc(-c2ccc3c(c2)-c2n[nH]cc2S(=O)(=O)N3C)cc1`
14

Try this compound next: `CNc1nc(-c2ccc3c(N)n[nH]c3c2)cc(N2C[C@@H](C(=O)Nc3ccccc3)CC[C@H]2C)n1`
9

Try this compound next: Cn1cncc1C(=O)NC1CCN(c2ccnc(Nc3ccc(F)cc3)n2)C1 (centres unmarked)
7

Try this compound next: `c1ccc(-c2ccnc3[nH]ccc23)cc1`
10

Try this compound next: `Fc1ccc(-c2nn3cccc(F)c3c2-c2ccncc2)cc1`
0

Try this compound next: `Cc1c(Cn2c(C)c(C)n3c(=O)cc(N4CCOCC4)nc23)cccc1C(F)(F)F`
9

Try this compound next: `CN1c2ccc(-c3ccc(C(N)=O)cc3)cc2-c2[nH]ncc2S1(=O)=O`
14

Try this compound next: `CS(=O)(=O)CCNCc1nc(-c2ccc3ncnc(Nc4ccc(OCc5ccccc5)c(Cl)c4)c3c2)cs1.Cl`
0

Try this compound next: `Cc1cnc(N)c(/C=C/c2cncc(C(=O)NCCc3ccc(Cl)cc3Cl)c2)c1.Cl`
5

Try this compound next: `O=C1NC(=O)C(c2ccc(Cl)cc2)=C1Nc1cccc(Cl)c1`
0

Try this compound next: `Cc1ccc(-c2nc(Nc3ccncc3)c3ccccc3n2)s1`
8

Try this compound next: `Cc1nccc(-c2c(-c3ccc(F)cc3)ncn2CCCN2CCOCC2)n1.Cl`
9

Try this compound next: `COc1cc2ncnc(Nc3cccc(Br)c3)c2cc1OC.Cl`
2

Try this compound next: `O=c1cc(N2CCOCC2)nc2n(Cc3ccccc3F)ccn12`
0

Try this compound next: `COc1ccc(CSc2nnc(-c3ccc4ncsc4c3)o2)cc1C(F)(F)F`
0

Try this compound next: `COc1ccc2cc(-c3nc(-c4ccccc4C(C)C)[nH]c3-c3ccncc3)ccc2c1`
12

Try this compound next: COC(=O)c1cccc(NC(=O)NC2CCN(c3ccnc(Nc4ccc(OC)cc4)n3)C2)c1 (centres unmarked)
7

Try this compound next: `CNCc1ccc2nc(NC(=O)c3ccc(C(C)(C)C)cc3)cn2c1`
0

Try this compound next: `Cn1cnc2c(N)ncnc21`
0
